# method summary: Vesicle; KP from the fits
# condition description: DMPC vesicles (MST); buffer
Non-standard residues stand in square brackets, D forms with d. Residues, ends and D or L forms follow the SMILES beside them.
observable: membrane partition coefficient KP (KP x 10^3)

Inquiry: Please report membrane partition coefficient KP (KP x 10^3) for the following compound: CC(C)C[C@@H]1NC(=O)[C@@H](CCCNC(=N)N)NC(=O)[C@H](CCCCN)NC(=O)[C@H](CC(N)=O)NC(=O)[C@@H](Cc2c[nH]c3ccccc23)NC(=O)[C@H](Cc2c[nH]c3ccccc23)NC1=O [compound 5] (cyclo(LW[dW]NK[dR]))
Reply text: 3.10 ± 2.17 x10^3

Inquiry: Please report membrane partition coefficient KP (KP x 10^3) for the following compound: NCCCC[C@@H]1NC(=O)[C@H](CCCCN)NC(=O)[C@H](Cc2c[nH]c3ccccc23)NC(=O)[C@H](Cc2c[nH]c3ccccc23)NC(=O)[C@H](Cc2c[nH]c3ccccc23)NC(=O)[C@H](CCCCN)NC1=O [compound 3] (cyclo(WWWKKK))
Reply text: 2.55 ± 0.89 x10^3

Inquiry: Please report membrane partition coefficient KP (KP x 10^3) for the following compound: N=C(N)NCCC[C@@H]1NC(=O)[C@H](Cc2c[nH]c3ccccc23)NC(=O)[C@H](CCCNC(=N)N)NC(=O)[C@H](Cc2c[nH]c3ccccc23)NC(=O)[C@H](CCCNC(=N)N)NC(=O)[C@H](Cc2c[nH]c3ccccc23)NC1=O [compound 2] (cyclo(WRWRWR))
Reply text: 7.08 ± 2.32 x10^3

Inquiry: Please report membrane partition coefficient KP (KP x 10^3) for the following compound: NCCCC[C@@H]1NC(=O)[C@H](Cc2c[nH]c3ccccc23)NC(=O)[C@H](CCCCN)NC(=O)[C@H](Cc2c[nH]c3ccccc23)NC(=O)[C@H](CCCCN)NC(=O)[C@H](Cc2c[nH]c3ccccc23)NC1=O [compound 4] (cyclo(WKWKWK))
Reply text: 8.56 ± 7.41 x10^3

Inquiry: Please report membrane partition coefficient KP (KP x 10^3) for the following compound: N=C(N)NCCC[C@@H]1NC(=O)[C@H](CCCNC(=N)N)NC(=O)[C@H](Cc2c[nH]c3ccccc23)NC(=O)[C@H](Cc2c[nH]c3ccccc23)NC(=O)[C@H](Cc2c[nH]c3ccccc23)NC(=O)[C@H](CCCNC(=N)N)NC1=O [compound 1] (cyclo(WWWRRR))
Reply text: 7.24 ± 1.73 x10^3
